Hello, the source for this data is paper PMC12136037, in case you need it.

# Assay Target: ~100 representative kinases (Homo sapiens)
# Construct: Recombinant protein kinase domains with a concentration of 2 μM
# Protocol: DSF 100 kinase selectivity screen;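 also: compound tested at 20 µM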
# Type: binding
# Recorded Conditions: Protein AAK1; average of three replicates
Measurement Kind: dTm (K)
A number alone suffices; assume K.

Structure Smiles	Unit Text	dTm
CCNc1nc(Nc2cc(F)c(C(=O)N3CCOCC3)cc2OC)ncc1C(F)(F)F	K	4.61

Would you kindly share the measured dTm for CC(=O)N1CCN(c2nc(Cl)nc3[nH]cc(-c4cccc(NC(=O)Nc5cc(C(C)(C)C)nn5-c5ccc(C)cc5)c4)c23)CC1 ?
0.59

What does the record list as dTm for Cc1ccc(C(=O)Nc2ccc(CN3CCN(C)CC3)c(C(F)(F)F)c2)cc1C#Cc1c[nH]c2ncnc(N3CCOCC3)c12 ?
3.06

====

# Assay Target: ~100 representative kinases (Homo sapiens)
# Construct: Recombinant protein kinase domains with a concentration of 2 μM
# Sequence (Q13188 1-491): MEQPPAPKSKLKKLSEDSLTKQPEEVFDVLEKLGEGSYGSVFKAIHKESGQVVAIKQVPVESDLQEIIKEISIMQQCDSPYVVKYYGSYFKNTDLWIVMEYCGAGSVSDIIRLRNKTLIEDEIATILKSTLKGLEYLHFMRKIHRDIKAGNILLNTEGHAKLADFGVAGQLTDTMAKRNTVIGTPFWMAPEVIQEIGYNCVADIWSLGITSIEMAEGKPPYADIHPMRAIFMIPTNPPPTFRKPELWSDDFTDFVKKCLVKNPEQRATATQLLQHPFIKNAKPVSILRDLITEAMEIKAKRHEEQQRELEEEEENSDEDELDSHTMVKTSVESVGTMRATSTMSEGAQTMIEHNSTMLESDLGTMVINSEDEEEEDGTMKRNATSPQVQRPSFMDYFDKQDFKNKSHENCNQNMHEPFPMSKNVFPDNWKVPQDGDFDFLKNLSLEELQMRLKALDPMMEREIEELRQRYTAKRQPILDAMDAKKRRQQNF
# Protocol: DSF 100 kinase selectivity screen;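 also: compound tested at 20 µM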
# Type: binding
# Recorded Conditions: Protein STK3; DSF; average of three replicates
Measurement Kind: dTm (K)
Give just the numeric value; K need not be written.

Example entries and their recorded answers appear below.
Compound	dTm [K]
O=C(Nc1ccc(F)cc1)C1(C(=O)Nc2cccc(-c3c[nH]c4ncnc(N5CCOCC5)c34)c2)CC1	7.33
Cc1cc(NC(=O)C2(C(=O)Nc3cccc(-c4c[nH]c5ncnc(N6CCOCC6)c45)c3)CC2)ccc1F	10.06
CN[C@@H]1C[C@H]2O[C@@](C)([C@@H]1OC)n1c3ccccc3c3c4c(c5c6ccccc6n2c5c31)C(=O)NC4	16.47
O=C(Nc1cccc(-c2c[nH]c3ncnc(N4CCOCC4)c23)c1)c1cccn(-c2ccc(F)cc2)c1=O	9.51
COc1ccc(NC(=O)C2(C(=O)Nc3cccc(-c4c[nH]c5ncnc(N6CCOCC6)c45)c3)CC2)cc1	5.34

Which value of dTm has been reported for Cc1ccc(-n2nc(C(C)(C)C)cc2NC(=O)Nc2cccc(-c3c[nH]c4ncnc(N5CCOCC5)c34)c2)cc1 in the records?
10.79

Which dTm reading was recorded for the compound CC(=O)N1CCN(c2nc(Cl)nc3[nH]cc(-c4cccc(NC(=O)Nc5cc(C(C)(C)C)nn5-c5ccc(C)cc5)c4)c23)CC1 ?
6.29

Given the compound CCSc1nc(NC)c2c(-c3cccc(NC(=O)Nc4cc(C(C)(C)C)nn4-c4ccc(C)cc4)c3)c[nH]c2n1 , what is its reported dTm?
0.53

Which dTm reading was recorded for the compound CC(C)(C)c1cccc(NC(=O)C2(C(=O)Nc3cccc(-c4c[nH]c5ncnc(N6CCOCC6)c45)c3)CC2)c1 ?
9.61
